- protocol notes: E. coli growth modulation, two-sided OD650, primary screen, E. coli filamentation project, strain DRC41, 24 h (AID 1093);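 further: MC1000 strain lacking acrAB efflux and sulA so SOS filamentation is blocked; test concentration not given here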
- cond: OD650, 24 h, higher = more signal, called active from +8 up or from −8 down
endpoint: z-score
One number for each entry.

INSERT INTO assay_data (compound, measured) VALUES
  ('COC(=O)C[C@H]1O[C@]2(C(=O)N(C)c3ccccc32)[C@@H](C)[C@@H]1[Si](C)(C)F', 1.64),
  ('OCCCC1=CC(c2cccs2)N(Cc2cc3c(cc2Br)OCO3)CC1 (configuration not stated)', -0.414),
  ('COCCOC(=O)N1C(=O)[C@@]2(c3cc(C#CCCO)ccc31)[C@H](C(N)=O)[C@H]1C(=O)O[C@H](c3ccccc3)[C@H](c3ccccc3)N1[C@@H]2c1ccc(O)cc1', -0.844),
  ('CCCC[C@@H]1C[C@H]1[C@@H](NC(=O)c1ccco1)c1ccccc1C(F)(F)F', -0.763);

State the recorded z-score for every item in the following list.
1. [N-]=[N+]=NCc1ccccc1[C@@H]1OC(c2ccc(OCCCO)cc2)=N[C@]1(Cc1ccccc1)C(=O)NCC(O)CO (some centres not stated)
2. COc1cc2c(cc1O)C(C1CC1)N(Cc1sc3ccccc3c1Cl)CC2 (configuration not stated)
3. COCCOC(=O)N1C(=O)[C@@]2(c3ccccc31)[C@H](c1ccccc1OCCO)N1[C@H](c3ccccc3)[C@H](c3ccccc3)OC(=O)[C@H]1[C@@H]2C(=O)N1CCN(c2ncccn2)CC1

-- reply
1. 0.123
2. -0.587
3. 0.22

====

Please provide measured composite z-score for the entries that follow.
- target entity: Alpha-bungarotoxin (Bungarus multicinctus) (UniProt P60615)
- Sequence (P60615 whole entry, looked up): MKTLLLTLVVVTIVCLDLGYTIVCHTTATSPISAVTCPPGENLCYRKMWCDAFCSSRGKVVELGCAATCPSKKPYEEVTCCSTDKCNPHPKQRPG
- protocol notes: alpha-bungarotoxin binders on microarray, profiling panel, artefact control for SMM control protein annotation, biochemical, small-molecule microarray, Alexa647 label, 635/667 nm fluorescence (AID 1117)
- cond: alpha-BTX-A647 binding fluorescence, higher = more signal
Answers are plain numbers.

Field: example entries. Status: answers known.
INSERT INTO measurements (molecule, measured) VALUES
  ('O=C1O[C@H](c2ccccc2)[C@H](c2ccccc2)N2[C@H]1[C@@H](C(=O)N1CCCCCCC1)[C@]1(C(=O)Nc3ccc(C#CCCO)cc31)[C@H]2c1ccccc1OCCO', 4.84),
  ('CCCCC(CC)C(O)C1C=CC2C(=O)N(Cc3ccccc3)C(=O)C2N1n1cnnc1 (stereo unspecified)', 0.308),
  ('NC(=O)N1C(=O)C2C(C1=O)C1C=C(c3ccc(CO)cc3)C2C(c2cccs2)N1Cc1cccc(OC(F)(F)F)c1 (stereo unspecified)', 0.611),
  ('COCCOC(=O)N1C(=O)[C@@]2(c3cc(C#Cc4ccc(OC)cc4)ccc31)[C@H](c1ccccc1OCCO)N1[C@H](c3ccccc3)[C@H](c3ccccc3)OC(=O)[C@H]1[C@@H]2C(=O)NC[C@H](O)c1ccccc1', 1.86),
  ('CC(C)[Si]1(C(C)C)O[C@@H](c2ccccc2)c2cc(-c3ccc(-c4ccc(Cl)c(Cl)c4)o3)nc(-c3ccccc3)c21', 0.575);

Tested system Alpha-bungarotoxin (Bungarus multicinctus) (UniProt P60615); composite z-score recorded for `COCCOC(=O)N1C(=O)[C@@]2(c3ccccc31)[C@H](c1ccc(O)cc1)N1[C@H](c3ccccc3)[C@H](c3ccccc3)OC(=O)[C@H]1[C@@H]2C(=O)Nc1nc2ccccc2s1` was 1.87

====

- target entity: Carbonic anhydrase 2 (Homo sapiens)
- protocol notes: CAII small-molecule binders, profiling panel, biochemical, small-molecule microarray, Alexa647-labelled CAII (AID 1122)
- cond: CAII-A647 binding fluorescence, higher = more signal
Please provide measured composite z-score for the entries that follow.
One number for each entry.

Field: example entries. Status: answers known.
INSERT INTO measurements (molecule, target_entity, measured) VALUES
  ('NCCCCCCNC(=O)[C@@H]1C[C@@H]2C(=O)NCC(=O)N2[C@@H]1c1ccc(O)cc1', 'Carbonic anhydrase 2 (Homo sapiens)', 0.4),
  ('CN1C(=O)C2C=CC(C(O)C#Cc3ccccc3)N(N3CCCCC3)C2C1=O (stereo not drawn)', 'Carbonic anhydrase 2 (Homo sapiens)', 0.798);

State the recorded composite z-score for every item in the following list.
1. CC(C)C(=C=CC[C@@H](O)c1ccc(OCCO)cc1)C[C@@H](O)COCc1ccccc1
2. O=C1[C@@]23C=C(Br)[C@H](C[C@@H]2CCOC3)[C@@]12CO2
3. O=C(NCCO)C1=C[C@H](Oc2ccccc2I)[C@@H](O)[C@H](N(Cc2ccco2)C(=O)Cc2ccccc2)C1
4. C=CCN1C(=O)[C@@]2(CC=C)N=C(c3ccc(OCCCO)cc3)O[C@H]2c2ccccc21
5. CC(C)[Si]1(C(C)C)O[C@@H](c2ccccc2)c2cc(-c3ccc(-c4ccc(Cl)c(Cl)c4)o3)nc(-c3ccccc3)c21
6. CCOC(=O)[C@H]1C/C=C/C[C@H](C(=O)OCC)C(=O)O[C@H]2[C@@H](OC)O[C@H](CO)[C@@H](OC(=O)c3c(OC)cccc3OC)[C@@H]2OC1=O

-- reply
1: 0.624; 2: -0.0433; 3: -0.17; 4: 0.614; 5: 0.233; 6: 0.512

====

- Tested on: glycogen synthase kinase-3 (GSK3A per assay name; protocol says GSK3B)
- protocol notes: GSK3 binders on small-molecule microarrays, primary screen, biochemical, small-molecule microarray, 635 nm fluorescence, GSK3A (AID 1103); further: the record names both GSK3A and GSK3B
- cond: small-molecule microarray binding, fluorescence 635 nm; higher = more signal
endpoint: composite z-score
Give bare numbers.

INSERT INTO results (compound, measured) VALUES
  ('C=C(CCCC)/C(=C/C[C@@H](OC(=O)c1ccncc1)c1ccc(OCCO)cc1)c1cc(C(=O)OC)ccc1OC', 0.605),
  ('CN(C)C(=O)[C@]1(Cc2ccccc2N=[N+]=[N-])N=C(c2ccc(OCCCO)cc2)O[C@@H]1c1ccccc1N=[N+]=[N-]', -0.0929),
  ('CC1(C)[C@@H]2CC(C(O)C3C=CC4C(=O)N(c5ccccc5)C(=O)C4N3Nc3ccc([N+](=O)[O-])cc3)=C[C@H]1C2 (some centres not stated)', 1.34),
  ('CCCCN1CC=CC23O[C@@H]4C=CCCOC(=O)C4[C@H]2C(=O)N(CCCCCCO)[C@@H]3C1=O (some centres not stated)', -0.163),
  ('CC(C)N1C(=O)C[C@@](C(=O)NCC(F)(F)F)(c2ccc([N+](=O)[O-])cc2)[C@H]1c1ccc(CO)cc1', 0.0211);

State the recorded composite z-score for every item in the following list.
1. COc1ccc(CCNC(=O)[C@@]2(Sc3ccc(C)cc3)CC(=O)N(C(C)C)[C@@H]2c2ccc(CO)cc2I)cc1
2. [N-]=[N+]=NCc1ccccc1[C@@H]1OC(c2ccc(OCCCO)cc2)=N[C@]1(Cc1ccccc1)C(N)=O

-- reply
[-1.02, 1.3]

====

- protocol notes: small-molecule microarray binders of probe aXIP, primary screen, biochemical, NeuroSMM set, 635/667 nm fluorescence (AID 1119);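 further: probe is the protein aXip251-270 applied at 1 µg/mL to compound-printed slides; binding of probe to printed compounds measured as 667 nm fluorescence plus signal to noise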
- cond: higher = more signal, called active from +8 up or from −8 down
Activity calls are given as the source filed them.
endpoint: composite Z-score

Field: example entries. Status: answers known.
INSERT INTO assay_data (smiles_record, endpoint, measured) VALUES
  ('CN(C)CCCC[C@@H]1NC(=O)[C@@H]2C[C@H](C(=O)NCCCCCCN)[C@H](c3cccc(OCCO)c3)N2C1=O', 'composite Z-score', '0.938 (inactive)'),
  ('CN(C)CCCC[C@@H]1NC(=O)[C@H]2C[C@@H](C(=O)NCCCCCCN)[C@@H](c3ccc(O)cc3)N2C1=O', 'composite Z-score', '0.37 (inactive)'),
  ('C[C@@]1([C@@H](NC(=O)c2ccc(-c3ccccc3)cc2)c2ccc(Cl)cc2)C[C@H]1C1CCCCC1', 'composite Z-score', '-0.286 (inactive)');

So, `C=C(/C(=C/C[C@H](OC(C)=O)c1ccccc1OCCO)c1cnc2ccccc2c1)C(C)C` ? Its composite Z-score was -0.323 (inactive)

====

- protocol notes: modulators of S6 phosphorylation in cells, primary screen, cell-based, A549, cytoblot, luminescence, serum-stimulated (AID 1158);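 further: serum-stimulated A549 lung adenocarcinoma cells; signal is phosphorylated S6 detected by cytoblot immunostaining with HRP secondary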
- cond: A549 phospho-S6 cytoblot, 5 h, higher = more signal
endpoint: z-score
One number for each entry.

Field: example entries. Status: answers known.
INSERT INTO results (compound, measured) VALUES
  ('C=CC(=C)[C@H]1Oc2ccccc2S(=O)(=O)N2CCC[C@@H]12', 0.0928),
  ('CCOC(=O)C[C@H]1[C@H](OC(=O)c2ccccc2-c2ccccc2)[C@@H](NC(=O)CC(C)C)c2cc(OCCCO)ccc2N1C(=O)Cc1ccc(OC)cc1', 0.633),
  ('[N-]=[N+]=NCc1ccccc1[C@@H]1OC(c2ccc(OCCCO)cc2)=N[C@]1(Cc1ccccc1)C(=O)NCC(O)CO (stereo partly drawn)', -0.319),
  ('Cc1ccc(S[C@]2(C(=O)O)CC(=O)N(C(C)C)[C@@H]2c2ccc(CO)cc2I)cc1', 2.24),
  ('COc1ccc(-c2cc3c(c(-c4ccc(Oc5ccccc5)cc4)n2)[Si](C(C)C)(C(C)C)OC3)cn1', -0.837);

State the recorded z-score for every item in the following list.
1. C=C[C@H](C)[C@@H](OC(=O)Nc1ccc(OC)cc1)c1ccc(O)c2ccccc12
2. CCC[C@@H]1C[C@@]1(CCC)[C@@H](NC(=O)c1ccccc1)c1cccc(Cl)c1

-- reply
[-0.751, -0.841]

So, `COC(=O)[C@@]1(Cc2ccc(F)cc2)[C@H]2c3cc(C(=O)N(C)C)n(Cc4ccccc4)c3C[C@H]2CN1C(=O)c1ccccc1` ? Its z-score was -0.231
